Measured half-life values are reported for all entries that follow.
# assayText: Stability of peptides in human liver microsomes
# Assay type: in vitro ADME
# runParameters: human, microsomes
# Experimental: b) Stability of Peptides in Human Plasma, Simulated Gastric Fluid, Intestinal Fluid and Liver Microsomes (Ex-Vivo): Different short-chain peptides (final concentration 2 μM) were incubated with either pooled human plasma (7.5 μL) or simulated gastric fluid (pH 1.5; composition HCl, NaCl and Pepsin) or simulated intestinal fluid (pH 7.5) or human liver microsomes, for 0, 2, 4, 6, 12 and 24 h (37° C.; 50 mM triethanolamine-HCl buffer; pH 7.8). […]
Where a SMILES comes first, the peptide text is derived from it. [ ]: non-standard residue; d: D form. ξ: configuration not given here. ξBip(2'-Et-4'-OMe) = CCc1cc(OC)ccc1-c1ccc(CC(N)C(=O)O)cc1; Arg(NO2) = N=C(NCCC[C@H](N)C(=O)O)N[N+](=O)[O-]; αMePhe(2-F) = C[C@](N)(Cc1ccccc1F)C(=O)O; hhPhe = N[C@@H](CCCc1ccccc1)C(=O)O; hArg = N=C(N)NCCCC[C@H](N)C(=O)O; Nle = CCCC[C@H](N)C(=O)O; Orn = NCCC[C@H](N)C(=O)O; Ac3c = NC1(C(=O)O)CC1; Aib = CC(C)(N)C(=O)O
Report the figure along with its unit, number first.

compound="CCCC[C@H](NC(=O)[C@](C)(Cc1ccccc1F)NC(=O)[C@H](CCC(N)=O)NC(=O)[C@@H](NC(=O)[C@H](CCC(=O)O)NC(=O)C(C)(C)NC(=O)[C@@H](NC(=O)C(C)(C)N)C(C)C)[C@@H](C)CC)C(=O)N[C@@H](Cc1c[nH]cn1)C(=O)N[C@@H](CCC(N)=O)C(=O)N[C@@H](CCCN)C(=O)N[C@@H](C)C(=O)N[C@@H](CCCNC(=N)N[N+](=O)[O-])C(=O)N[C@@](C)(Cc1ccccc1F)C(N)=O [Seq. ID. 329] (H-[Aib]V[Aib]EIQ[αMePhe(2-F)][Nle]HQ[Orn]A[Arg(NO2)][αMePhe(2-F)]-NH2)" experimentalreadout=half-life result="30 min"

Q: Give the measured half-life for CCCC[C@H](NC(=O)[C@H](CC(C)C)NC(=O)[C@H](CCC(N)=O)NC(=O)[C@@H](NC(=O)[C@H](CCC(=O)O)NC(=O)C1(NC(=O)[C@@H](NC(=O)C2(N)CC2)C(C)C)CC1)[C@@H](C)CC)C(=O)N[C@@H](Cc1c[nH]cn1)C(=O)N[C@@H](CCC(N)=O)C(=O)N[C@@H](CCCCNC(=N)N)C(=O)N[C@@H](C)C(=O)N[C@@H](CCCCN)C(=O)NC(Cc1ccc(-c2ccc(OC)cc2CC)cc1)C(=O)N[C@@H](CCCc1ccccc1)C(N)=O (some centres unmarked) [Seq. ID. 610] (H-[Ac3c]V[Ac3c]EIQL[Nle]HQ[hArg]AK[ξBip(2'-Et-4'-OMe)][hhPhe]-NH2)
A: 60 min
